Examples of molecules with documented AUG follow.
Tested on: Rattus norvegicus
measurement-protocol: AUC in rats at a dose of […] mg/kg
Type: ADME, organism-based, Plasma
stated-conditions: in vivo, 1 mg/kg
outcome-measure: AUG (ng·h/mL)

INSERT INTO measurements (mol_smiles, target_desc, assay_result) VALUES
  ('Cc1cccc(C)c1C(=O)N1CCC(C)(N2CCC(N(Cc3ccccc3)c3ccccc3)CC2)CC1', 'Rattus norvegicus', 569),
  ('Cc1cccc(C)c1C(=O)N1CCC(C)(N2CCC(N(c3ccccc3)c3ccccc3)CC2)CC1', 'Rattus norvegicus', 664),
  ('Cc1nc(-c2ccncc2)nc(C)c1C(=O)N1CCC(C)(N2CCC(N(c3ccccc3)c3ccccc3)CC2)CC1', 'Rattus norvegicus', 513),
  ('CC1(N2CCC(N(c3ccccc3)c3ccccc3)CC2)CCN(C(=O)c2cccc3ccccc23)CC1', 'Rattus norvegicus', 518),
  ('Cc1nc[n+]([O-])c(C)c1C(=O)N1CCC(C)(N2CCC(N(c3ccccc3)c3ccccc3)CC2)CC1', 'Rattus norvegicus', 1030);

Reference for the values: ChEMBL document CHEMBL1149140
